Where do the numbers come from? From ChEMBL document CHEMBL1127014.

target.of.assay: GABA-A receptor; anion channel (Rattus norvegicus) (UniProt O09028+P15431+P18506+P18508+P19969+P20236+P23574+P23576+P28471+P28473+P30191+P62813+P63079+P63138+Q91ZM7+Q9ES14)
test.summary: GABA shift ratio at Diazepam sensitive fraction of GABA-A benzodiazepine receptor
Format: protein-complex assay
experimental.endpoint: GABA shift
Response field accepts a number only; no unit should be typed.

Prompt: Which value of GABA shift has been reported for CN1Cc2c(C(=O)OCC3CC3)ncn2-c2ccc(Cl)cc2C1=O in the records?
Completion: 176

Prompt: Which value of GABA shift has been reported for CN(C)N=Nc1ccc2c(c1)C(=O)N(C)Cc1c(C(=O)OC(C)(C)C)ncn1-2 in the records?
Completion: 1.12

Prompt: Which value of GABA shift has been reported for CC(C)OC(=O)c1ncn2c1CN(C)C(=O)c1cc(Cl)ccc1-2 in the records?
Completion: 123

Prompt: Which value of GABA shift has been reported for CCC(CC)OC(=O)c1ncn2c1CN(C)C(=O)c1cc(Cl)ccc1-2 in the records?
Completion: 158

Prompt: Which value of GABA shift has been reported for CN1Cc2c(C(=O)OC(C)(C)C)ncn2-c2ccc(N=C=S)cc2C1=O in the records?
Completion: 1.35

Prompt: Which value of GABA shift has been reported for CN1Cc2c(C(=O)OCC(C)(C)C)ncn2-c2ccc(Cl)cc2C1=O in the records?
Completion: 177

Prompt: Which value of GABA shift has been reported for CCOC(=O)c1ncn2c1CN(C)C(=O)c1ccccc1-2 [RO-147437] in the records?
Completion: 98

Prompt: Which value of GABA shift has been reported for CN1Cc2c(C(=O)OC(C)(C)C)ncn2-c2ccc(I)cc2C1=O in the records?
Completion: 1.22

Prompt: Which value of GABA shift has been reported for CN1Cc2c(C(=O)OC(C)(C)C)ncn2-c2ccc(Cl)cc2C1=O in the records?
Completion: 116

Prompt: Which value of GABA shift has been reported for CN1Cc2c(C(=O)OC(C)(C)C)ncn2-c2ccc([N+](=O)[O-])cc2C1=O in the records?
Completion: 1.46

----------
target.of.assay: GABA-A receptor; anion channel (Rattus norvegicus) (UniProt O09028+P15431+P18506+P18508+P19969+P20236+P23574+P23576+P28471+P28473+P30191+P62813+P63079+P63138+Q91ZM7+Q9ES14)
test.summary: Selectivity for Diazepam insensitive compared to sensitive GABA-A benzodiazepine receptor fractions
Type: protein-complex assay
Kindly state Ratio for each of the entries shown.
Response field accepts a number only; no unit should be typed.

Prompt: Which value of Ratio has been reported for CCC(CC)OC(=O)c1ncn2c1CN(C)C(=O)c1cc(Cl)ccc1-2 in the records?
Completion: 4.6

Prompt: Which value of Ratio has been reported for CN1Cc2c(C(=O)OC(C)(C)C)ncn2-c2ccccc2C1=O in the records?
Completion: 19.2

Prompt: Which value of Ratio has been reported for CN1Cc2c(C(=O)OC(C)(C)C)ncn2-c2ccc(I)cc2C1=O in the records?
Completion: 0.21

Prompt: Which value of Ratio has been reported for CCCOC(=O)c1ncn2c1CN(C)C(=O)c1cc(Cl)ccc1-2 in the records?
Completion: 1.3

Prompt: Which value of Ratio has been reported for COC(=O)c1ncn2c1CN(C)C(=O)c1sccc1-2 in the records?
Completion: 57

Prompt: Which value of Ratio has been reported for CC(C)OC(=O)c1ncn2c1CN(C)C(=O)c1cc(Cl)ccc1-2 in the records?
Completion: 0.8

Prompt: Which value of Ratio has been reported for CN1Cc2c(C(=O)OC(C)(C)C)ncn2-c2ccc(Cl)cc2C1=O in the records?
Completion: 0.4

Prompt: Which value of Ratio has been reported for CN1Cc2c(C(=O)OC(C)(C)C)ncn2-c2ccc(Br)cc2C1=O in the records?
Completion: 0.17
